Target: T1, human factor IX (human, UniProt P00740 47-461, 12 glutamic acid residues of the GLA domain are post-translationally γ-carboxylated)
T1 construct: Zymogen used as analyte in SPR, reconstituted at 1 mg/ml; also called FIX; Human FIX (MW ~55 KDa)
T1 sequence (P00740 47-461 limits assumed): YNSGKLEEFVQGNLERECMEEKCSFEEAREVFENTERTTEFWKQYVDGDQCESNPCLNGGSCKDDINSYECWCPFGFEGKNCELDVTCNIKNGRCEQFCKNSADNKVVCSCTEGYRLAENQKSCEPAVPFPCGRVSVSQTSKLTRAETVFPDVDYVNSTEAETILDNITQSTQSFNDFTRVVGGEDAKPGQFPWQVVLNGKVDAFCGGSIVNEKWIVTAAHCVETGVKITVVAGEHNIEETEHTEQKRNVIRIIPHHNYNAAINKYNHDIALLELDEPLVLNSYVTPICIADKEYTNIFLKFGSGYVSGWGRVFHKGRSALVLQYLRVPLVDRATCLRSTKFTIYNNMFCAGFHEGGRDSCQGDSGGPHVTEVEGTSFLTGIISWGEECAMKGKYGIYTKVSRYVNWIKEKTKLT
Experiment: SPR, IgG captured on anti-human IgG Fc, human FIX as analyte
Overview of recorded Kd for various binders
# output: bare number, implied unit nM

Some solved entries appear below for comparison.
BINDER	OUTPUT_UNIT	Kd
NINA-0440.0128 (antibody, V domains shown) VH: EVQLVESGGGFVQPGGSLRLSCAVSGFTFNSYWMSWVRQAPGKGLEWVANINQDGSEKFYVASVKGRFTMSRDNAKKSVYVQMNSLRAEDTAVYYCAREGYSSNSYYGMDVWGQGTTVTVSS VL: SYVLTQPPSVSVAPGETARITCGGDNIGRKSVYWYQQKSGQAPVLVIYYDSDRPSGIPERFSGSNSGNTATLTISRVEAGDEADYYCQVWDGSSDHWVFGGGTKLTVL	nM	289
NINA-0456.0128 (antibody, V domains shown) VH: EVQLVESGGGFVQPGGSLRLSCAVSGFTFNSYWMSWVRQAPGKGLEWVANINQDGSEKFYVASVKGRFTMSRDNAKKSVYVQMNSLRAEDTAVYYCAREGYSSSLYYGMDVWGQGTTVTVSS VL: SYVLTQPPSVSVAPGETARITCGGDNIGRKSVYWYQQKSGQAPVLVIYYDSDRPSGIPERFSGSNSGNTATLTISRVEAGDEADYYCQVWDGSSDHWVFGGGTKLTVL	nM	263
NINA-0445.0128 (antibody, V domains shown) VH: EVQLVESGGGFVQPGGSLRLSCAVSGFTFNSYWMSWVRQAPGKGLEWVANINQDGSEKFYVASVKGRFTMSRDNAKKSVYVQMNSLRAEDTAVYYCAREGYSSVSYYGMDVWGQGTTVTVSS VL: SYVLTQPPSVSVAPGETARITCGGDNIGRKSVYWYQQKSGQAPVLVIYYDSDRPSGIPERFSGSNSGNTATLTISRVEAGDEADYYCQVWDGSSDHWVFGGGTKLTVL	nM	267

Here is another binder to look at.
Exercise: Requested field: Kd. Item: NINA-0442.0128 (antibody, V domains shown) VH: EVQLVESGGGFVQPGGSLRLSCAVSGFTFNSYWMSWVRQAPGKGLEWVANINQDGSEKFYVASVKGRFTMSRDNAKKSVYVQMNSLRAEDTAVYYCAREGYSSQSYYGMDVWGQGTTVTVSS VL: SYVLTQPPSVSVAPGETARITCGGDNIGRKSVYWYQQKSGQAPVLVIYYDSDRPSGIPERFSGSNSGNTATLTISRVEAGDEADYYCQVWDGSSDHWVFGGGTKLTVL
Solution: 242
